# setup_conditions: additive at 3 percent weight; 4 Hrs.
If the reported Viscosity in centipoises at 4 Hrs. equals or exceeds 2000 centipoises, assign rule met. If not, assign rule not met.

1) OCCNCCO [Diethanolamine]    rule not met
2) CN(C)C=O [Dimethyl formamide]    rule met
3) O.O.O.O.O.O.O.O.O.O.O.O.O=P([O-])([O-])[O-].[Na+].[Na+].[Na+] [Trisodium phosphate . 12H2 O]    rule not met
4) C1CCNCC1 [Piperidine]    rule not met
5) NCCN [Ethylenediamine, diaminoethane]    rule not met
6) O=P(O)(O)OP(=O)(O)O [Tetrasodium pyrophosphate . 10H2 O]    rule not met
7) C1COCCN1 [Morpholine, tetrahydro-p-oxazine]    rule not met
8) N [Ammonium hydroxide]    rule not met
9) O.O.O.O.O.O.O.O=P([O-])([O-])O.[Na+].[Na+] [Disodium phosphate . 7H2 O]    rule met
10) NC(N)=O [Urea]    rule not met
11) O=P([O-])([O-])O.[Na+].[Na+] [Disodium phosphate anhydrous]    rule not met

* * *

Measured Viscosity in centipoises at 0 of individual entries
# setup_conditions: additive at 3 percent weight; time 0
measured_property: Viscosity in centipoises at 0 (centipoises)

1) C1COCCN1 [Morpholine, tetrahydro-p-oxazine]    550
2) O.O.O.O.O.O.O.O.O.O.O.O.O=P([O-])([O-])[O-].[Na+].[Na+].[Na+] [Trisodium phosphate . 12H2 O]    450
3) CN(C)C=O [Dimethyl formamide]    475
4) C1CCNCC1    600
5) C1N2CN3CN1CN(C2)C3    500

* * *

# setup_conditions: additive at 3 percent weight; 1 Hr.
Binning scheme for Viscosity in centipoises at 1 Hr.: label 0 (below 700 centipoises), label 1 (700 centipoises to below 900 centipoises), label 2 (900 centipoises or more)

1. N [Ammonium hydroxide]    label 0
2. C1COCCN1 [Morpholine, tetrahydro-p-oxazine]    label 1
3. O.O.O.O.O.O.O.O=P([O-])([O-])O.[Na+].[Na+] [Disodium phosphate . 7H2 O]    label 2
4. C1CCNCC1 [Piperidine]    label 1
5. OCCNCCO [Diethanolamine]    label 1
6. NC(N)=O [Urea]    label 1
7. C1N2CN3CN1CN(C2)C3 [Hexamethylene tetramine]    label 2
8. O.O.O.O.O.O.O.O.O.O.O.O.O=P([O-])([O-])[O-].[Na+].[Na+].[Na+] [Trisodium phosphate . 12H2 O]    label 1
9. NCCN [Ethylenediamine, diaminoethane]    label 0

* * *

# protocol_description: pH of the aqueous dispersion
# Assay type: physicochemical
# setup_conditions: additive at 3 percent weight in Control dispersion
measured_property: Initial Dispersion pH

1) O.O.O.O.O.O.O.O=P([O-])([O-])O.[Na+].[Na+] [Disodium phosphate . 7H2 O]    7.0
2) C1N2CN3CN1CN(C2)C3    6.7
3) C1COCCN1 [Morpholine, tetrahydro-p-oxazine]    8.7
4) O=P([O-])([O-])O.[Na+].[Na+] [Disodium phosphate anhydrous]    7.2
5) NC(N)=O    6.6
6) C1CCNCC1    9.9
7) O.O.O.O.O.O.O.O.O.O.O.O.O=P([O-])([O-])[O-].[Na+].[Na+].[Na+] [Trisodium phosphate . 12H2 O]    7.7
8) OCCNCCO    9.0

* * *

Measured Viscosity in centipoises at 21-28 Hrs. of individual entries
# setup_conditions: additive at 3 percent weight; 21-28 Hrs.
measured_property: Viscosity in centipoises at 21-28 Hrs. (centipoises)

1. [K+].[OH-] [Potassium hydroxide]    1450
2. C1COCCN1 [Morpholine, tetrahydro-p-oxazine]    2700
3. N [Ammonium hydroxide]    750

* * *

# setup_conditions: additive at 3 percent weight; time 0
measured_property: Viscosity in centipoises at 0 (centipoises)

1. O=P([O-])([O-])O.[Na+].[Na+] [Disodium phosphate anhydrous]    425
2. NCCN    450
3. OCCNCCO    600
4. NC(N)=O    600
5. N [Ammonium hydroxide]    400
6. O.O.O.O.O.O.O.O=P([O-])([O-])O.[Na+].[Na+] [Disodium phosphate . 7H2 O]    500
7. O=P(O)(O)OP(=O)(O)O [Tetrasodium pyrophosphate . 10H2 O]    500

* * *

# setup_conditions: additive at 3 percent weight; 6 Min.
measured_property: Viscosity in centipoises at 6 Min. (centipoises)

1) NC(N)=O    650
2) C1COCCN1 [Morpholine, tetrahydro-p-oxazine]    525
3) N [Ammonium hydroxide]    400
4) O=P(O)(O)OP(=O)(O)O [Tetrasodium pyrophosphate . 10H2 O]    600
5) NCCN    500
6) C1N2CN3CN1CN(C2)C3    550
7) O.O.O.O.O.O.O.O.O.O.O.O.O=P([O-])([O-])[O-].[Na+].[Na+].[Na+] [Trisodium phosphate . 12H2 O]    600
8) O=P([O-])([O-])O.[Na+].[Na+] [Disodium phosphate anhydrous]    550
9) CN(C)C=O [Dimethyl formamide]    500
10) O.O.O.O.O.O.O.O=P([O-])([O-])O.[Na+].[Na+] [Disodium phosphate . 7H2 O]    600
11) C1CCNCC1    650

* * *

Measured Viscosity in centipoises at 1 Hr. of individual entries
# setup_conditions: additive at 3 percent weight; 1 Hr.
measured_property: Viscosity in centipoises at 1 Hr. (centipoises)

1) O=P(O)(O)OP(=O)(O)O [Tetrasodium pyrophosphate . 10H2 O]    900
2) CN(C)C=O [Dimethyl formamide]    900
3) O=P([O-])([O-])O.[Na+].[Na+] [Disodium phosphate anhydrous]    875
